molecular target: Thyroid hormone receptor beta (Homo sapiens) (UniProt P10828); assay: qHTS assay for small molecule agonists of thyroid hormone receptor beta signaling (AID 588545); conditions: TR-UAS-bla GripTite HEK 293, beta-lactamase ratio, agonist mode, 18 h; series mostly up to 76.7 µM;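 further: 0% = DMSO only and 100% = 10 nM T3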
Sequence (P10828 whole entry, looked up): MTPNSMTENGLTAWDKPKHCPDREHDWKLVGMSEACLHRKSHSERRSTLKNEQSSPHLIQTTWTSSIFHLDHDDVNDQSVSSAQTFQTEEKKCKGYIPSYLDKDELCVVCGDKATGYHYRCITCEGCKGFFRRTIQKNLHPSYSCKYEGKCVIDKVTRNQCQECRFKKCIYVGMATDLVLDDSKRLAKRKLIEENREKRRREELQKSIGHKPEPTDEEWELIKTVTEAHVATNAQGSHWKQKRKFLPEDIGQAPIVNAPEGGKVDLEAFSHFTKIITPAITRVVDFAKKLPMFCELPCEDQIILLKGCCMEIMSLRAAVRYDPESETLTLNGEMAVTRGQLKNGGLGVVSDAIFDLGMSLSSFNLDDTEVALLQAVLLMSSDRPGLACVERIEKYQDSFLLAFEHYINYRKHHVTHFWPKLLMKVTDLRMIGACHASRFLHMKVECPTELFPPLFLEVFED
Results filed as inconclusive are left out. Active and inactive are the calls of the source. The call rests on the fitted dose curve.
measurementType: outcome

Examples with answers:
CCC(O)OCCCOC (stereo not drawn) = inactive
Cc1ccc(S(=O)(=O)N=C=O)cc1 = inactive
COC(=O)CCSCCC(=O)OC = inactive
CC1(C)CC(N)CC(C)(CN)C1 (stereo not drawn) = inactive

Then there is this compound:
State its outcome on Thyroid hormone receptor beta (Homo sapiens) (UniProt P10828): Nc1ccc(N)c2c1C(=O)c1c(N)ccc(N)c1C2=O
inactive

* * *

Biological target: Cytochrome P450 3A4 (Homo sapiens) (UniProt P08684)
Sequence (P08684 whole entry, looked up): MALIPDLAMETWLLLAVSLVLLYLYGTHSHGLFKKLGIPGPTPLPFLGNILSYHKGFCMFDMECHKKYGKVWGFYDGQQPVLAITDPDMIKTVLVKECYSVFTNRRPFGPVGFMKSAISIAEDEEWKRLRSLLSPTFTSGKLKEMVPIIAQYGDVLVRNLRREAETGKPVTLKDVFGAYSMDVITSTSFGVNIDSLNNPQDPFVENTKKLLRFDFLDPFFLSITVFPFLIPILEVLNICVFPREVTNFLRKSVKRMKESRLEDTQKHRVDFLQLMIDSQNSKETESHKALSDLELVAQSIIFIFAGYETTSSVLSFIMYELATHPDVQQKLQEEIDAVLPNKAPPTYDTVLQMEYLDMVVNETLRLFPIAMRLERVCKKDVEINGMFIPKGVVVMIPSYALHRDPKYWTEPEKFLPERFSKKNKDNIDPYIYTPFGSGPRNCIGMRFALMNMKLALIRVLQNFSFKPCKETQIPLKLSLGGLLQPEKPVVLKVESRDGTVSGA
Test: qHTS Assay for Activators of Cytochrome P450 3A4 (AID 885); further: nearly all actives have a fitted effect of over 65% in size
Conditions: recombinant CYP3A4, Luciferin-PPXE luminescence, 60 min; series mostly up to 57.1 µM
Procedure: NIH Molecular Libraries Screening Centers Network [MLSCN] NIH Chemical Genomics Center [NCGC] The P450 gene superfamily is involved in the metabolism and clearance of xenobiotics. […] The luciferin is then measured by luminescence after the addition of a luciferase detection reagent. […] Inhibitors and some substrates limit the production of luciferin, and decrease measured luminescence; activators increase the production of luciferin and luminescence. […]
Calls of active or inactive are those of the source. Calls come from the whole dose curve; as a rule, active = well fitted activation curve with a large enough effect; inconclusive = small, poorly fitted or top-dose-only effect; inactive = no such curve, though single readings can be large or run the other way.
measurementType: activity change, positive = activation

Examples with answers:
CO[C@@H]1COC(=O)C/C=C\[C@@H](C)[C@H](OC)COC(=O)[C@H](COCc2ccccc2)NC(=O)C/C=C\[C@H]1C = -41.7% [at 11.4 µM] (inactive)
COC(=O)c1ccc(C23CC4(C2)[C@H](CN(Cc2ccc(C(F)(F)F)cc2)[C@@H]4c2ccccc2)C3c2ccccc2)cc1 (stereo partly specified) = inactive
CCCCCCN(C(=O)CCCCCN1C(=O)NC(c2ccc(-c3ccccc3)cc2)C(C(=O)OCc2ccccc2)=C1C)C(C(=O)NCCCC)c1ccccn1 (stereo unspecified) = inactive
CCCCCCN(C(=O)CCCCCN1C(=O)NC(c2ccc(-c3ccccc3)cc2)C(C(=O)OCc2ccccc2)=C1C)C(C(=O)NCCCC)c1ccc(O)cc1 (stereo unspecified) = inactive
COC(=O)CN=C1OC(=O)N2C(=O)C3=C4C(C[C@H]5C(=O)N(c6ccccc6)C(=O)[C@H]5[C@H]4[C@@]12Cc1ccccc1)[C@H]1C(=O)N(c2ccccc2)C(=O)[C@H]1[C@H]3C (stereo partly specified) = inactive

So what does the record say about activity change, positive = activation for CN1C[C@@H]2C(c3ccc(Cl)nc3)C3(c4cccnc4)CC2(C3)[C@H]1c1ccccc1 (stereo partly specified) ?
inactive

Then CCC1=C(OC(=O)N(CC)CC)N2C(=O)OC(=NCCOC)[C@]2(C)[C@H]2C1=CC[C@H]1C(=O)N(C)C(=O)[C@H]12 ?
inactive

Then COC(=O)c1ccc(C(NC(=O)OCc2ccccc2)/C(F)=C/[C@@H](C)C(=O)NCCN2CCOCC2)cc1 (stereo partly specified) ?
inactive

* * *

Assay: qHTS assay for small molecule antagonists of peroxisome proliferator-activated receptor delta signaling (AID 588535);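 further: cells co-treated with a PPAR-delta agonist as stimulator during compound exposure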
Details: HEK293T PPARd-UAS-bla, beta-lactamase FRET ratio, 18 h; 460 nm channel
Description: NIH Chemical Genomics Center [NCGC] U.S. Environmental Protection Agency [EPA] National Institutes of Environmental Health Sciences [NIEHS] National Toxicology Program [NTP] NCGC Assay Overview The Peroxisome proliferator-activated receptors (PPARs) are lipid-activated transcription factors of the nuclear receptor superfamily with three distinct subtypes namely PPAR alpha, PPAR delta (also called PPAR beta) and PPAR gamma. […]
Records with an inconclusive call do not appear.
measurementType: max response (%)
Express your answer in %, writing the number without its unit.

Examples with answers:
CC(C)=CCC/C(C)=C\CO = 2.44
CS/C(=N\O)C(=O)N(C)C = 31.5
CCCCCCCCCc1ccccc1 = 1.13
C[Si](Cl)(Cl)c1ccccc1 = 44.2
CCCCCc1ccc(N)cc1 = 19.2

So what does the record say about max response for CC1=CC2C3CC(C=C3C)C2C1 (stereo not drawn) ?
7.89

Then CC1(C)C(=O)N(Br)C(=O)N1Br ?
-25.7

Then O=S(=O)(O)c1cc(S(=O)(=O)O)c2c(N=Nc3ccccc3)c(O)ccc2c1 ?
-19.3

* * *

assay: qHTS screen for small molecules that inhibit ELG1-dependent DNA repair: Hit Confirmation with MMS Viability (AID 624251); conditions: Cell viability with MMS; series mostly up to 46.1 µM;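 further: ELG1-luc HEK293T cells co-treated with 10 µM MMS; viability read 16 h after compound addition; on the % scale 0 is the no-effect control and ±100 the full control effect; nearly all actives have a fitted effect of over 60% in size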
The list shows a part of the results. Results filed as inconclusive are left out. Active and inactive are the calls of the source. The call rests on the fitted dose curve; in most records, active means well fitted cell-killing curve with a large enough effect; inconclusive means small, poorly fitted or top-dose-only effect, or effect the other way; inactive means flat fitted curve, though single readings scatter.
measurementType: outcome

COc1ccccc1C(=O)Nc1ccc(C)c(S(=O)(=O)N2CCCCC2)c1 = inactive
CCc1ccc(N(CC)c2ncnc3nc[nH]c23)cc1 = inactive
CCOC(=O)c1cccc(NC(=O)C2CCN(c3ncnc4c3nc3n4CCCCC3)CC2)c1 = inactive

* * *

Target: Flap endonuclease 1 (Homo sapiens)
Assay: qHTS Assay for the Inhibitors of FEN1: Confirmatory Assay for Cherry-picked Compounds (AID 720498); further: potency means the concentration at half of the fitted maximal effect; nearly all actives have a fitted effect of over 60% in size
Details: FEN1 flap cleavage, TAMRA/BHQ2 fluorogenic DNA substrate
Source text: The major human flap endonuclease FEN1 is an efficient structure-specific enzyme that recognizes and cleaves a 5'-unannealed DNA flap. It belongs to the RAD2 family nucleases, which are involved in DNA metabolism and are highly conserved in prokaryotes and eukaryotes. FEN1 is a key enzyme in DNA replication, repair and maintenance of genomic stability. […]
The list shows a part of the results. Results filed as inconclusive are left out. Active and inactive are the calls of the source. The call rests on the fitted dose curve; in most records, active means well fitted inhibition curve with a large enough effect; inconclusive means small, poorly fitted or top-dose-only effect; inactive means flat fitted curve, though single readings scatter.
measurementType: Potency

CCc1ccc2nc3sc(C(=O)Nc4nnc(CC)s4)c(N)c3cc2c1 = 60.1 µM (active)
C=CC1=C(C(=O)O)N2C(=O)[C@@H](NC(=O)/C(=N/OCC(=O)O)c3csc(N)n3)[C@H]2SC1 = 33.8 µM (active)
COCCNC(=O)Nc1ccc2nc(-c3ccco3)c(-c3ccco3)nc2c1 = 19 µM (active)
CCN(CC)c1ccc2cc(C(N)=O)/c(=N\NC(=O)c3ccncc3)oc2c1 = 33.8 µM (active)

So what does the record say about Potency for O=C(COC(=O)c1ccc([N+](=O)[O-])o1)NC12CC3CC(CC(C3)C1)C2 ?
8.49 µM (active)

* * *

biological target: Cytochrome P450 2C19 (Homo sapiens) (UniProt P33261); test: qHTS Assay for Inhibitors and Substrates of Cytochrome P450 2C19 (AID 899); settings: recombinant CYP2C19, luciferin-H EGE luminescence; series mostly up to 11.4 µM; further: nearly all actives have a fitted effect of over 60% in size
Sequence (P33261 whole entry, looked up): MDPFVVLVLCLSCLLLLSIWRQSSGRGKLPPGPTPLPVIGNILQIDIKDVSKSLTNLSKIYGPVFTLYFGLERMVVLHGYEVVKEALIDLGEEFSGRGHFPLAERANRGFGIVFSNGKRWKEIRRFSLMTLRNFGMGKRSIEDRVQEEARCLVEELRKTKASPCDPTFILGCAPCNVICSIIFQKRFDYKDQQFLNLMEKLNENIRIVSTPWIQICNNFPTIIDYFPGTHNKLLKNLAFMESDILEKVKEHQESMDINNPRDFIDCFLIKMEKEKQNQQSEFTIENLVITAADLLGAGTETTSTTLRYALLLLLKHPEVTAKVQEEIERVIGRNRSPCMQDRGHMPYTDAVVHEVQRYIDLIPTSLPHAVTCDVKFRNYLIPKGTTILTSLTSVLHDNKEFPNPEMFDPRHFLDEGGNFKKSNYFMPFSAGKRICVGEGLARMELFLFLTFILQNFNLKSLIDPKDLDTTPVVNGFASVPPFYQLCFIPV
Records with an inconclusive call do not appear. Activity calls are given as the source filed them. Calls come from the whole dose curve; as a rule, active = well fitted inhibition curve with a large enough effect; inconclusive = small, poorly fitted or top-dose-only effect; inactive = no such curve, though single readings can be large or run the other way.
Please reply with one of these outcomes: TRUE (active), FALSE (inactive)

Please state the recorded outcome for this compound: COC(=O)C/C=C\[C@@H](C)[C@@H](/C=N\OC[C@@H]1O[C@H](c2ccccc2)C=C[C@@H]1Oc1ccc(OC)cc1)OC
TRUE

Then O=C1C=C[C@@H](O)[C@@H]2[C@H]3C(=O)N(c4ccc(F)cc4F)C(=O)[C@@H]3CC[C@@H]12 ?
FALSE

* * *

target: Cytochrome P450 3A4 (Homo sapiens); experiment: qHTS Assay for Inhibitors and Substrates of Cytochrome P450 3A4 (AID 884); settings: recombinant CYP3A4, Luciferin-PPXE luminescence; series mostly up to 57.1 µM; further: potency means the concentration at half of the fitted maximal effect; nearly all actives have a fitted effect of over 50% in size
Records with an inconclusive call do not appear. Activity calls are given as the source filed them. Calls follow the shape of the dose curve; as a rule, active = well fitted inhibition curve with a large enough effect; inconclusive = small, poorly fitted or top-dose-only effect; inactive = no such curve, though single readings can be large or run the other way.
# Potency per record follows

Examples with answers:
COC(=O)c1ccc(C(NC(=O)OCc2ccccc2)/C(=C/[C@@H](C)C(=O)NCC2CC2)c2cccnc2)cc1 (stereo partly drawn) = 2000 nM (active)
COC(=O)[C@@]1(Cc2ccccc2)[C@H]2c3cc(C(=O)N(C)C)n(Cc4c(CO)[nH]cc(C)c4=O)c3C[C@H]2CN1C(=O)c1ccccc1 = 1580 nM (active)
Cn1c(-c2nc(-c3ccccc3)cs2)nc2ccccc21 = 10000 nM (active)
COc1ccc(C#CC2C=CC(Oc3cc(C)cc(C)c3)C(CO)O2)cc1 (stereo not drawn) = 1580 nM (active)
COC(=O)C/C=C\[C@@H](C)[C@@H](/C=N\OC[C@@H](O)[C@H]1O[C@H]2OC(C)(C)O[C@H]2[C@@H]1O)NS(=O)(=O)c1ccc(C)cc1 = 3980 nM (active)
c1ccc(C2[C@H]3CN(Cc4cccnc4)[C@H](c4ccccc4)C34CC2(c2cccnc2)C4)cc1 (stereo partly drawn) = 1580 nM (active)

Then there is this compound:
State its Potency on Cytochrome P450 3A4 (Homo sapiens): FC(F)(F)c1ccc(C2[C@H]3CN(Cc4cccnc4)[C@H](c4ccccc4)C34CC2(c2ccccc2)C4)cc1 (stereo partly drawn)
3160 nM (active)

* * *

assay: qHTS for Inhibitors of Plasmodium falciparum (7G8) proliferation (AID 504316); further: nearly all actives have a fitted effect of over 65% in size; conditions: P. falciparum 7G8 in erythrocytes, SYBR Green DNA, 72 h; series mostly up to 6.7 µM
Inconclusive results are not listed. Activity calls are given as the source filed them. Calls come from the whole dose curve; as a rule, active = well fitted inhibition curve with a large enough effect; inconclusive = small, poorly fitted or top-dose-only effect; inactive = flat fitted curve, though single readings scatter.
Please reply with one of these outcomes: active, inactive

Examples from the recorded data:
COC(=O)CCC(=O)OC1(C)C(=O)C=C2C=C(C3CC3)N(C3CCCCC3)C=C2C1=O (stereo not drawn) = inactive
COC(=O)C1=C(C(=O)OC)[C@@H]2N(C)c3ccc(OC)cc3[C@@]23C[C@@H](C(=O)OC)N(S(=O)(=O)c2ccc(Br)cc2)C3=N1 = active
CCOC(=O)NN=C1C[C@@H](O)[C@@H](O)[C@@H]2[C@H]3C(=O)N(CC)C(=O)[C@@H]3CC[C@@H]12 = inactive
CCN(CC)CCCN1C=C2C(=O)C(C)(OC(=O)CCc3ccccc3)C(=O)C=C2C=C1c1ccc(C#N)cc1 (stereo not drawn) = inactive
COCOc1c2c(c(OCOC)c3c(OCOC)cccc13)C(=NNS(C)(=O)=O)C1=C2CCCC1 = active
CCCCC1=CC2=C(c3ccco3)C(=O)C(C)(OC(=O)c3ccc(OC)cc3)C(=O)C2=CN1C1CCCC1 (stereo not drawn) = inactive
COC(=O)C1=C(C(=O)OC)[C@@H]2N(C)c3ccc(OC)cc3[C@@]23C[C@@H](C(=O)OC)N(S(=O)(=O)c2cccs2)C3=N1 = inactive

Please state the recorded outcome for this compound: COC(=O)[C@@H](NC(=O)N1CCc2nc(COc3ccccc3)c3c(c2C1)CO[C@@H](C)C3)C(C)C
active
